Tested on: disturbances of the cardiac rhythm
Experiment: Anti-arrhythmic action in the rat (aconitine perfusion)
Type: in vivo, male rats
Conditions: read-out: Percentage of prolongation in the time
Procedure: Male rats weighing 300-350 g were anesthetized intra-peritoneally with 1.20 g/kg of urethane, then tracheotomized and submitted to artificial respiration (40-50 breaths of 3 ml/minute). Needles were implanted subcutaneously so as to record the electro-cardiogram of the rats on the DII derivation signal. The products under test were administered intravenously or orally. […]
Parameter change in vivo at 1 mg/kg: see the listing below.
Please format your answer as a value with the unit trailing.

Consider the reported change in vivo at 1 mg/kg for these compounds:
CC(C)NCCCOc1ccccc1NC(=O)c1cccc2[nH]ccc12 [Example 41]    34%
O=C(Nc1ccccc1OCCCNC1CCCC1)c1cccc2[nH]ccc12 [Example 42]    29%
CC(C)(CO)NCC(O)COc1ccccc1C(=O)Nc1cccc2[nH]ccc12 (stereo not shown) [Example 37]    47%
CC(C)(CO)NCCCOc1ccccc1C(=O)Nc1cccc2[nH]ccc12 [Example 40]    21%
CC(C)(C)CC(C)(C)NCC(O)COc1ccccc1C(=O)Nc1cccc2[nH]ccc12 (stereo not shown) [Example 36]    25%
O=C(Nc1ccccc1OCCCNC1CCCCC1)c1cccc2[nH]ccc12 [Example 43]    49%

Name the reported change in vivo at 1 mg/kg value associated with the compound CCC(C)(C)NCCCOc1ccccc1NC(=O)c1cccc2[nH]ccc12 [Example 44]
50%
